- Method notes: self-splicing fitness, log relative to wild type (ln ratio); higher = more splicing; Tetrahymena group I intron in knt gene, E. coli kanamycin selection, DiMSum; sequences stand for … in CUCUCU…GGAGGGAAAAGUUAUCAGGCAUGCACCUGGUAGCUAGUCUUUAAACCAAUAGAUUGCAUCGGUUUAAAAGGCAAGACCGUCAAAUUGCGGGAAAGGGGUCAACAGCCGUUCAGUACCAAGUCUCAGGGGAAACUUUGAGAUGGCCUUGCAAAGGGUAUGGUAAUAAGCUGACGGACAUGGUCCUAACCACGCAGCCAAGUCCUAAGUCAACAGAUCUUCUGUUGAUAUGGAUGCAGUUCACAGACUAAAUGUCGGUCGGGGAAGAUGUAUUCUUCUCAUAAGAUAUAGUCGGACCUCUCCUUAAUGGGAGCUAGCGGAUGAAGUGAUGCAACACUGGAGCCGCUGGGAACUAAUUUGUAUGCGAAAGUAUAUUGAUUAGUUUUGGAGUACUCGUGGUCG;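 further: selection with 25 µg/mL kanamycin versus none on LB agar overnight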
- Stated conditions: 37 °C
Readout type: self-splicing fitness (ln)

Req: What measured self-splicing fitness (ln) goes with CCGUAGCAAUAUUACGUAAG ?
Resp: 0.106

Req: Moving on to the next sequence: CUUGAGCAAUAUUACGCGGC
Resp: -1.43

Req: Continue with UAGCAGCAAUAUUACGUCCU
Resp: -0.435

Req: Another sequence to check: ACUCAGCAAUAUUACGUGGC
Resp: -2.9

Req: Request: AGCCAGCAAUAUUACGUGGC
Resp: -3.57

====

Hi there, I'd appreciate the recorded self-splicing fitness (ln) for every entry that follows.
- Method notes: self-splicing fitness, log relative to wild type (ln ratio); higher = more splicing; Tetrahymena group I intron in knt gene, E. coli kanamycin selection, DiMSum; sequences stand for … in CUCUCU…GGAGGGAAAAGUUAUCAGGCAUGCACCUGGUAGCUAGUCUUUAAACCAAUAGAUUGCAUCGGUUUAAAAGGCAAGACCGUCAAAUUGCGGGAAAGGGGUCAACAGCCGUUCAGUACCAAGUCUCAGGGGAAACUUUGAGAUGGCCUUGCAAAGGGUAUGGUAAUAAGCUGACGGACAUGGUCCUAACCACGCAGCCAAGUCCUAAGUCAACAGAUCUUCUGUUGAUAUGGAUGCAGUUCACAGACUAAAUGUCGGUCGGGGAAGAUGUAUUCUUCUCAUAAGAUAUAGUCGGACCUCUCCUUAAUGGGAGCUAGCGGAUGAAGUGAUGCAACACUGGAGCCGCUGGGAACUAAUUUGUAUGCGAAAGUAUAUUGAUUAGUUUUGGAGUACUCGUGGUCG
- Stated conditions: 30 °C
Answer with a number only.

Req: Item GUAGAGCAAUAUUACGAGGC has what recorded self-splicing fitness (ln)?
Resp: -3.01

Req: Another sequence to check: AGUUAGCAAUAUUACGGCUG
Resp: -0.983

Req: Here is the next sequence: UAAGAGCAAUAUUACGUCCC
Resp: -3.99

Req: And what about the sequence GUCGAGCAAUAUUACGUCCC ?
Resp: -1.03

Req: Can you check AGAUAGCAAUAUUACGUGAU next?
Resp: -1.92

Req: Quick one: GCCGAGCAAUAUUACGUAAG
Resp: -2.26

Req: Now consider UGUCAGCAAUAUUACGUUAA and answer again.
Resp: -0.609

Req: Record: GCCUAGCAAUAUUACGCUUC
Resp: -2.42

Req: Try UGUAAGCAAUAUUACGGAGG next.
Resp: -3.23

Req: Param item: AGAAAGCAAUAUUACGAGAA
Resp: -2.63

Req: One more sequence: AAUUAGCAAUAUUACGGAGA
Resp: -3.3

Req: Next sequence: AGGCAGCAAUAUUACGUGCC
Resp: -2.9

Req: Do the same for UGUAAGCAAUAUUACGAGUU please
Resp: -2.78

Req: What do you have for GUCAAGCAAUAUUACGGCGU ?
Resp: -1.04

Req: Could you do the same for CUCAAGCAAUAUUACGCCUA , please?
Resp: -2.82

Req: Input AUAGAGCAAUAUUACGGACU
Resp: -1.15

Req: Now this one: UAUCAGCAAUAUUACGUCAC
Resp: -4

Req: Also need GGAAAGCAAUAUUACGACAU , thanks.
Resp: -0.445

Req: Next: GGCUAGCAAUAUUACGUUGG
Resp: -2.34

Req: What do you have for CUUAAGCAAUAUUACGGUAC ?
Resp: -3.99

Req: Now the sequence CCUGAGCAAUAUUACGGACU
Resp: -1.55

Req: Next sequence up: GCCAAGCAAUAUUACGUAAC
Resp: -1.35

Req: Next: AAUAAGCAAUAUUACGCGUA
Resp: -1.25

Req: Same read-out for CUGCAGCAAUAUUACGCAUU ?
Resp: -4.22

====

- Method notes: self-splicing fitness, log relative to wild type (ln ratio); higher = more splicing; Tetrahymena group I intron in knt gene, E. coli kanamycin selection, DiMSum; sequences stand for … in CUCUCU…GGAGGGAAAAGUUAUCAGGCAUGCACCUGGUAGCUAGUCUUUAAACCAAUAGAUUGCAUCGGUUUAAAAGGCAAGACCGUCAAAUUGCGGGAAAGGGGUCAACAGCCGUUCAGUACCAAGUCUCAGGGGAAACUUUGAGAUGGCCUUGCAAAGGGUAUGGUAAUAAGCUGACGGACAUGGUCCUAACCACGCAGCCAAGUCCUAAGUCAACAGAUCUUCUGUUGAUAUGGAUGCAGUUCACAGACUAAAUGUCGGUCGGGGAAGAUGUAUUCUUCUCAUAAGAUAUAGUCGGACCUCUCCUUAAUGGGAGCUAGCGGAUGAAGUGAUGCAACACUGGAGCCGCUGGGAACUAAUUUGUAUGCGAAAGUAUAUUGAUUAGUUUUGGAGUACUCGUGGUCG
- Stated conditions: 30 °C
Would you mind telling me the reported self-splicing fitness (ln) of each entry?
Enter the number alone.

Req: Looking for the measured self-splicing fitness (ln) of UCCAAGCAAUAUUACGAGCG , can you help?
Resp: -1.96

Req: Next: CGAAAGCAAUAUUACGCAAU
Resp: -3

Req: Note, next up: AUCGAGCAAUAUUACGUGUG
Resp: -3.04

====

- Method notes: self-splicing fitness, log relative to wild type (ln ratio); higher = more splicing; Tetrahymena group I intron in knt gene, E. coli kanamycin selection, DiMSum; sequences stand for … in CUCUCU…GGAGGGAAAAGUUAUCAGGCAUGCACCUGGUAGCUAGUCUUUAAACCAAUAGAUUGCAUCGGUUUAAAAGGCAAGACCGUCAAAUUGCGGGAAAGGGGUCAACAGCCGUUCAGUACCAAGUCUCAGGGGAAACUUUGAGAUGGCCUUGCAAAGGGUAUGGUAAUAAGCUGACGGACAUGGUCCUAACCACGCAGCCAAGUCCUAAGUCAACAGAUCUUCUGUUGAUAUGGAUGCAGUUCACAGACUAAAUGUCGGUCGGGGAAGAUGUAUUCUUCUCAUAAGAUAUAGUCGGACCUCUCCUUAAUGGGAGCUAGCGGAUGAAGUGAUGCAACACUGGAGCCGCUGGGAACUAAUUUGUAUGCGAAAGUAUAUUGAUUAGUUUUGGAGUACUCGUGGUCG
- Stated conditions: 30 °C
Readout type: self-splicing fitness (ln)
Simply state the number, no unit and no words.

Req: Request the reported self-splicing fitness (ln) associated with UGCCAGCAAUAUUACGAGGG
Resp: -2.61

Req: Now consider GGGAAGCAAUAUUACGCAUG and answer again.
Resp: -1.38

Req: Same again, this time with UUCUAGCAAUAUUACGGGGA
Resp: -0.859

Req: Then what about the sequence CAUAAGCAAUAUUACGCUAA ?
Resp: -2.58

Req: Same thing, different sequence: AGAUAGCAAUAUUACGUAAG
Resp: -1.31

Req: Another sequence to check: UCGCAGCAAUAUUACGCUGC
Resp: -2.62

Req: Field entry: AAGCAGCAAUAUUACGUGCA
Resp: -0.892

Req: Item: UAUGAGCAAUAUUACGAUGG
Resp: -3.59

Req: What do you have for GUACAGCAAUAUUACGCGCC ?
Resp: -2.15

====

- Method notes: self-splicing fitness, log relative to wild type (ln ratio); higher = more splicing; Tetrahymena group I intron in knt gene, E. coli kanamycin selection, DiMSum; sequences stand for … in CUCUCU…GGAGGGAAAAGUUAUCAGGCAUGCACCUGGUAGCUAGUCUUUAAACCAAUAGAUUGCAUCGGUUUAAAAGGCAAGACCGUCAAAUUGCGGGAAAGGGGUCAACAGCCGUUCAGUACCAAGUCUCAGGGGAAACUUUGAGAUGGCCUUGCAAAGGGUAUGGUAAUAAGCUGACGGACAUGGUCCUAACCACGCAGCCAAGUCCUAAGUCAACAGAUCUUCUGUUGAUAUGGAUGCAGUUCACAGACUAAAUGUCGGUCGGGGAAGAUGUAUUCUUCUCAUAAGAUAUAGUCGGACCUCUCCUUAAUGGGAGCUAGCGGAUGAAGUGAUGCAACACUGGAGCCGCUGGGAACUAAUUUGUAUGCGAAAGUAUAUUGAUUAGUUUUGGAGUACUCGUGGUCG
- Stated conditions: 37 °C
Classification field: enter Met for self-splicing fitness (ln) values not below -2, Not met for values below it.

Req: Quick check, self-splicing fitness (ln) >= -2? GAACAGCAAUAUUACGUUUA
Resp: Met

Req: Further, for UCCGAGCAAUAUUACGUGGA ?
Resp: Not met

Req: Now consider UGCCAGCAAUAUUACGAACG and answer again.
Resp: Met

Req: Now consider GAACAGCAAUAUUACGGAAG and answer again.
Resp: Met

Req: Same lookup for CGAUAGCAAUAUUACGUGUU , please.
Resp: Not met

Req: Now the sequence AUGUAGCAAUAUUACGGGCA
Resp: Met

Req: Try this sequence next: UAGUAGCAAUAUUACGCAUU
Resp: Met

Req: Also check CUUUAGCAAUAUUACGACGU
Resp: Met
